# test.description: chemical genetic growth profiling, strain panel (AID 1159580);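 also: tested at 20 µM; growth read once vehicle control cultures reached saturation at 30 °C; 1 = growth at the plate median or of vehicle wells; lower values mean less growth of the strain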
# run.conditions: S. cerevisiae deletion strains, growth OD, locus YOL147C, strain pex11
The whole screen tested about 5,500 compounds, of which about 2,000 (36%) were called active. Not shown: some 18% with an inconclusive outcome. Rule as the data show it: active = normalized growth mostly below about 0.91 (no sharp cut-off); inconclusive = no clear call, values can overlap the other calls; inactive = mostly above about 0.92. The list shows a part of the results.
Your reply should match one of these outcome classes. 1 (yes) (active), 0 (no) (inactive)

# count of solved cases: 2
1. CC(=O)C1CCC2C3CCC4C[C@H](O)CCC4(C)C3C[C@H](O)C12C (some centres not stated) :: 0 (no)
2. O=C1CCCCC/C=C/CCCCCCCCO1 :: 0 (no)

Can you look up the reported call for Cc1ccc(C(=O)c2ccc(CC(=O)O)n2C)cc1 for me? 0 (no)

Field entry: FC(F)(F)c1cccc(N2CCNCC2)c1 0 (no)

Field entry: CCCNC(=O)NS(=O)(=O)c1ccc(Cl)cc1 0 (no)
